Test Method Notes: Thermodynamic (Equilibrium) solubility in selected buffer
Type: physicochemical
Recorded Conditions: phosphate buffer 50 mM, aqueous buffer, thermodynamic from solid; pH 7.4; Table 25; read-out: Solubility (μg/mL) pH 7.4
// solubility lookup, one value per entry
Reply with just the number (in µg/mL).

Take a look at these entries with their results.
INSERT INTO assay_data (compound, value_reported) VALUES
  ('O=C(COc1ccc(Cl)c(F)c1)N[C@H]1CC[C@H](c2nnc(-c3ccc(C(F)(F)F)nc3)o2)NC1 [Example 52]', 7),
  ('O=C(COc1ccc(Cl)c(F)c1)N[C@H]1CC[C@H](c2nnc(N3CC[C@@H](OC(F)(F)F)C3)o2)NC1 (single isomer, unassigned) [Example 111]', 6),
  ('O=C(COc1ccc(C(F)(F)F)nc1)N[C@H]1CC[C@H](c2nnc(OCCOC(F)(F)F)o2)NC1 [Example 14]', 606),
  ('O=C(COc1ccc(Cl)c(F)c1)N[C@H]1CC[C@H](c2nnc(C3CN(CC(F)(F)F)C3)o2)NC1 [Example 57]', 501),
  ('O=C(CO[C@H]1C[C@@H](OC(F)(F)F)C1)N[C@@H]1CC[C@@H](c2nnc(-c3ccc(Cl)cc3)o2)NC1 [Example 5]', 278),
  ('O=C(COc1ccc(Cl)c(F)c1)N[C@H]1CC[C@H](c2nnc(OC3CCC(F)(F)C3)o2)NC1 (stereo partly shown) [Example 68]', 102);

Next up:
Lookup: So what does the record say about solubility for O=C(COc1ccc(Cl)c(Cl)c1)N[C@H]1CC[C@H](c2nnc([C@H]3C[C@@H](OC(F)F)C3)o2)NC1 [Example 60] ?
Found: 91
